B1: LINE1-full (parent)
chain: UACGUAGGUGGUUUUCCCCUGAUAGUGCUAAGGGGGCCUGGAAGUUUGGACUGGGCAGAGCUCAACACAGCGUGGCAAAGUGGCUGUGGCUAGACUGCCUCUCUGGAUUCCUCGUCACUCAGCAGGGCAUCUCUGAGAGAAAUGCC

Variants of: B1
Experiment: self-cleavage, relative activity (ratio to wild type); higher = more cleavage; in vitro, sequencing; the parent is a self-cleaving ribozyme
The entries below are paired with their reported self-cleavage.

[
  {
    "recordSequence": "UACGUAGGUGGUUUUCCCCUGAUAGUGCUAAGGGGGCCUGGAUGUUUGGACUGGGCAGAGCUCAACACAGCGUGGCAAAGUGGCUGUGGCUAGACUGCCUCUCCGGAUUCCUCGUCACUCAGCAGGGCAUCUCUGAGAGAAAUGCC [A43U U104C]",
    "self-cleavage": 1.67
  },
  {
    "recordSequence": "UACGUAGGUGGUUUUCCCCUGACAGUGCUAAGGGGGCCUGGAAGUUUGGACUGGGCAGAGCUCAACACAGCGUGGCAAAGUGGCUGUGGCUAGACUGCCUCUCUGGAUUCCACGUCACUCAGCAGGGCAUCUCUGAGAGAAAUGCC [U23C U112A]",
    "self-cleavage": 1.37
  },
  {
    "recordSequence": "UACGUAGGUGGUUUUCCCCGGAUAGUGCUAAGGGGGCCUGGAAGUUUGGACUGGGCAGAGCUCAACACAGCGUGGCAAAGUGGCUGUGGCUAGACUGCCUCUCUGGAUUCCUCGUCACUCAGCAGGGCAUCUCUGAGAGAAGUGCC [U20G A142G]",
    "self-cleavage": 1.09
  },
  {
    "recordSequence": "UACGUAGCUGGUUUUCCCCUGAUAGUGCUAAGGGGGCCUGGAAGCUUGGACUGGGCAGAGCUCAACACAGCGUGGCAAAGUGGCUGUGGCUAGACUGCCUCUCUGGAUUCCUCGUCACUCAGCAGGGCAUCUCUGAGAGAAAUGCC [G8C U45C]",
    "self-cleavage": 2.04
  },
  {
    "recordSequence": "UACGUAGGUGGUUUUCCCCUGAUAGUGCUAAGGGGGCCUGGAAGUUUGGACUGGGCAGAGCUCAACACAGCGCGGCAAAGUGGCUGUGGCUAGACUGCCUCUCUGGAUUCCUCGUCACUCAGCAGGUCAUCUCUGAGAGAAAUGCC [U73C G127U]",
    "self-cleavage": 0.92
  },
  {
    "recordSequence": "UACGUAGGUGGUUUUCCCCUGAUAGUGCUAAGGGGGCCUGGAAGUUUGGACUGAGCAGAGCUCAACACAGCGUGGCAAAGUGGCUGUGGCUAGACUGCCUCUCUGGAUUCCACGUCACUCAGCAGGGCAUCUCUGAGAGAAAUGCC [G54A U112A]",
    "self-cleavage": 0.83
  },
  {
    "recordSequence": "UACGUAGGUGGUUUUCCCCUGAUAGUGCUAAGGGGGCCUGGAAGUUUGGACUGGGCAGAGCUCAACACAGCGUUGCAAAGUGGCUGUGGCUAGACUGCCUCUCUGGAUUCCUCAUCACUCAGCAGGGCAUCUCUGAGAGAAAUGCC [G74U G114A]",
    "self-cleavage": 1.21
  },
  {
    "recordSequence": "UACGUAGGUGGUUUUCCCCUGAUAGUGCUAAGGGGGCCUGGAAGUUUGGACUGGGCAGAGCUCAACACAGCCUGGCAAAGUGGCUGUGGUUAGACUGCCUCUCUGGAUUCCUCGUCACUCAGCAGGGCAUCUCUGAGAGAAAUGCC [G72C C90U]",
    "self-cleavage": 0.03
  },
  {
    "recordSequence": "UACGUAGGUGGUUUUCCCCUGAUAGUGCUAAGGGGGCCUGGAAGUUUGGACUGGGCAGAGCUCAUCACAGCGUGGCAAAGUGGCUGUGGCUAGACUGCCUCUCUGGAUUCCUCGUCACUCAGCAGGGCAUCUCAGAGAGAAAUGCC [A65U U134A]",
    "self-cleavage": 0.13
  },
  {
    "recordSequence": "UACGUAGGUGGUUUUCCCCUGAUAGUGCUAAGGGGGCCUGGAAGUUUGGACAGGGCAGAGCUCAACACAGCGUGGCAAAGUGGCUGUGGCUAGACUGCCUCUCUGGAUUCCCCGUCACUCAGCAGGGCAUCUCUGAGAGAAAUGCC [U52A U112C]",
    "self-cleavage": 1.43
  },
  {
    "recordSequence": "UACGUAGGUGGUUUUCCCCUGAUAGUGCUAAGGGGGCCUGGAUGUUUGGACUCGGCAGAGCUCAACACAGCGUGGCAAAGUGGCUGUGGCUAGACUGCCUCUCUGGAUUCCUCGUCACUCAGCAGGGCAUCUCUGAGAGAAAUGCC [A43U G53C]",
    "self-cleavage": 1.03
  },
  {
    "recordSequence": "UACGUAGGUGGAUUUCCCCUGAUAGUGCUAAGGGGGCCUGGAAGUUUGGACUGGGCAGAGCUCAACACAACGUGGCAAAGUGGCUGUGGCUAGACUGCCUCUCUGGAUUCCUCGUCACUCAGCAGGGCAUCUCUGAGAGAAAUGCC [U12A G70A]",
    "self-cleavage": 0.18
  },
  {
    "recordSequence": "CACGUAGGUGGUUUUCCCCUGAUAGUGCUACGGGGGCCUGGAAGUUUGGACUGGGCAGAGCUCAACACAGCGUGGCAAAGUGGCUGUGGCUAGACUGCCUCUCUGGAUUCCUCGUCACUCAGCAGGGCAUCUCUGAGAGAAAUGCC [U1C A31C]",
    "self-cleavage": 1.33
  },
  {
    "recordSequence": "UACGUAGGUGGUUUUCCCCUGAUAGUGCUAAGGGGGCCUGGAAGUUUGGACUGGGCAGAGCUCAACACAGCGUGGCAAAGUGGCUGUGGCUAGACUGCCUCUCUGGAUUUCUCGUCACUCUGCAGGGCAUCUCUGAGAGAAAUGCC [C110U A121U]",
    "self-cleavage": 1.43
  },
  {
    "recordSequence": "UACGUAGGUGGUAUUCCCCUGAUAGUGCUAAGGGGGCCUGGAAGUUUGGACUGGGCAGAGCUCAACACAGCGUGGCAAAGUGGCUGUGGCUAGACUGCUUCUCUGGAUUCCUCGUCACUCAGCAGGGCAUCUCUGAGAGAAAUGCC [U13A C99U]",
    "self-cleavage": 0.46
  },
  {
    "recordSequence": "UACGUAGGUGGUUUUCCCCUGAUAGUGCUAAGGGGACCUGGAAGUUUGGACUGGGCAGAGCUCAACACAGCGUGGCAAAGUGGCUGUGGCUAGACUGCCUCUCUGGACUCCUCGUCACUCAGCAGGGCAUCUCUGAGAGAAAUGCC [G36A U108C]",
    "self-cleavage": 1.37
  },
  {
    "recordSequence": "UACGCAGGUGGUUUUCCCCUGAUAGUGCUAUGGGGGCCUGGAAGUUUGGACUGGGCAGAGCUCAACACAGCGUGGCAAAGUGGCUGUGGCUAGACUGCCUCUCUGGAUUCCUCGUCACUCAGCAGGGCAUCUCUGAGAGAAAUGCC [U5C A31U]",
    "self-cleavage": 0.78
  },
  {
    "recordSequence": "UACGUAGGUGGUUUUCCCCUGAUAGUGCUAAGGGGGCCUGGAAGUCGGGACUGGGCAGAGCUCAACACAGCGUGGCAAAGUGGCUGUGGCUAGACUGCCUCUCUGGAUUCCUCGUCACUCAGCAGGGCAUCUCUGAGAGAAAUGCC [U46C U47G]",
    "self-cleavage": 1.53
  },
  {
    "recordSequence": "UACGUAGGUGGUUUUCCCCUGAUAGUGCUAAGGGGGCCUGGAAGUUUGGACUGGGCAGAGCUCAACACAGCGUGGCAAAGUGGCUGUGGCUAGACUGCCUCUCUGGAUUCCUCGUCACUCAGCAGUGCAUCUCUGAGAGGAAUGCC [G126U A140G]",
    "self-cleavage": 0.66
  },
  {
    "recordSequence": "UACGUAGGUGAUUUUCCCCUGAUAGUGCUAAGGGGGCCUGGAAGUUUGGACUGGGCAGAGCUCAACACAGCGUGGCAAAGUGGUUGUGGCUAGACUGCCUCUCUGGAUUCCUCGUCACUCAGCAGGGCAUCUCUGAGAGAAAUGCC [G11A C84U]",
    "self-cleavage": 0.15
  },
  {
    "recordSequence": "UACGUAGGUGGUUUUCCCCUGAUAGUGCUAAGGGGGCCUGGAAGUUCGGACUGGGCAGAGCUCAACACAGCGUGGCAAAGUGGCUGUGGCUAGACUCCCUCUCUGGAUUCCUCGUCACUCAGCAGGGCAUCUCUGAGAGAAAUGCC [U47C G97C]",
    "self-cleavage": 1.3
  },
  {
    "recordSequence": "UACGUAGGUGGUUUUCCCCUGAUAGUCCUAAGGGGGCCUGGAAGUUUGGACUGUGCAGAGCUCAACACAGCGUGGCAAAGUGGCUGUGGCUAGACUGCCUCUCUGGAUUCCUCGUCACUCAGCAGGGCAUCUCUGAGAGAAAUGCC [G27C G54U]",
    "self-cleavage": 0.17
  }
]
